Test system: HCT-116
Test: NCI tumour cell line growth inhibition, 48 h
Activity calls are given as the source filed them. Rule as the data show it: active = GI50 up to about 1.1 µM and inactive = higher.
A correct response names exactly one class from T (active), F (inactive)

*Q* // param item: C=CC1ON(C)CCc2cc(OC)c(OC)cc21 (stereo unspecified) ; yields the recorded call
*A* F

*Q* // param item: C=CCCC1(CC(Sc2ccccc2)P(=O)(c2ccccc2)c2ccccc2)OCCO1 (stereo unspecified) ; yields the recorded call
*A* F

*Q* // param item: Nc1ccc(Cc2c(N)[nH]c(=O)[nH]c2=O)cc1 ; yields the recorded call
*A* F

*Q* // param item: Nc1ncnc2c1cnn2Cc1ccc(Cl)cc1 ; yields the recorded call
*A* F

*Q* // param item: O/N=C(\c1ccccc1)N1CCCCC1 ; yields the recorded call
*A* F

*Q* // param item: CC(C)(C)c1ccccc1N1C(=O)c2ccc3c4c(ccc(c24)C1=O)N(c1ccccc1C(C)(C)C)C3=O ; yields the recorded call
*A* F

*Q* // param item: O=C(O)C1CCC(=O)N1C(=O)C(Cl)c1ccccc1 (stereo unspecified) ; yields the recorded call
*A* F

*Q* // param item: C=CC1CN(C(=O)OCC)N(C(=O)OCC)C1CCc1ccccc1 (stereo unspecified) ; yields the recorded call
*A* F

*Q* // param item: OCCN(CCO)c1ccc2c(C(F)(F)F)cc(C(F)(F)F)nc2n1 ; yields the recorded call
*A* F

*Q* // param item: COC(=O)NC1(NC(=O)OC)NC(=O)c2cc(OC)c(OC)cc2N1 ; yields the recorded call
*A* F

*Q* // param item: [O-][N+]1=C2CCC/C(=N/O)C2(O)C2CCCCC21N1CCOCC1 (stereo unspecified) ; yields the recorded call
*A* F

*Q* // param item: CC#COP(=O)(OCC)OCC ; yields the recorded call
*A* F

*Q* // param item: CN1C(=O)N/C(=C\c2ccc(S(=O)(=O)N/N=C\C(O)C(O)C(O)CO)cc2)C1=O (stereo unspecified) ; yields the recorded call
*A* F

*Q* // param item: OCCCSCCO ; yields the recorded call
*A* F

*Q* // param item: N#C/C(=C/NC(N)=S)C(N)=O ; yields the recorded call
*A* F

*Q* // param item: C/C(=N\NC(=S)NC1CCCC1)c1ccccn1 ; yields the recorded call
*A* T

Numbers sourced from ChEMBL document CHEMBL1201862.
